Biological target: Amine oxidase [flavin-containing] B (Rattus norvegicus, UniProt P19643)
Sequence (P19643 whole entry): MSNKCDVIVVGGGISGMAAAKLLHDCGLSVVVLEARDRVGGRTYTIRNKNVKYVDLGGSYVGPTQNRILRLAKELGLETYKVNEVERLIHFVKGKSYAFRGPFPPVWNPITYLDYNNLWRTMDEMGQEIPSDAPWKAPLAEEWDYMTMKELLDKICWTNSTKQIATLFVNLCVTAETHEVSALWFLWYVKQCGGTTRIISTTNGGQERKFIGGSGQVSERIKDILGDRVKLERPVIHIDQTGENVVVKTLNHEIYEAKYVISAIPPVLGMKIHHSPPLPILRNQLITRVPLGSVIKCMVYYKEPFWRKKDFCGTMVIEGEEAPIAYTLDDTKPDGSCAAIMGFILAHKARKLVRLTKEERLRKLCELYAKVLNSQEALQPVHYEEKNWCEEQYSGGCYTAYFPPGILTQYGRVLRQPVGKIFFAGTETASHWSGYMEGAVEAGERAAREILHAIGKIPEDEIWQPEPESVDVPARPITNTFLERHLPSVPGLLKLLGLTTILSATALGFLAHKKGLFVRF
Output met for records whose IC50 is lower than 10 µM, not met for records at or above 10 µM.

Reference set (3 entries):
Quick check: does "COc1ccc(/C=C2\CCc3c(O)cccc3C2=O)c(Cl)c1OC" have IC50 under 10 µM?
not met

Quick check: does "COc1ccc2c(c1)CC/C(=C\c1cc(OC)c(OC)c(OC)c1Br)C2=O" have IC50 under 10 µM?
not met

Quick check: does COc1cc(/C=C2\CC(C)c3ccccc3C2=O)c(Br)c(OC)c1OC (centres undefined) have IC50 under 10 µM?
met

New cases:
Quick check: does "COc1cc(/C=C2\CCc3c(O)cccc3C2=O)c(Br)c(OC)c1OC" have IC50 under 10 µM?
not met

Quick check: does "COc1cccc(/C=C2\CCc3c(O)cccc3C2=O)c1Cl" have IC50 under 10 µM?
not met

Quick check: does "COc1ccc(/C=C2\CCc3ccc(F)cc3C2=O)c(Cl)c1OC" have IC50 under 10 µM?
met

Quick check: does "COc1ccc(/C=C2\CCc3ccc(Cl)cc3C2=O)c(Cl)c1OC" have IC50 under 10 µM?
not met

Quick check: does "COc1ccc2c(c1)CC/C(=C\c1ccc(OC)c(OC)c1Cl)C2=O" have IC50 under 10 µM?
not met

Quick check: does "COc1ccc2c(c1)CC/C(=C\c1cccc(OC)c1Cl)C2=O" have IC50 under 10 µM?
not met

====

Measured IC50 values are reported for all entries that follow.
Target: Amine oxidase [flavin-containing] A (Rattus norvegicus, UniProt P21396)
Sequence (P21396 whole entry): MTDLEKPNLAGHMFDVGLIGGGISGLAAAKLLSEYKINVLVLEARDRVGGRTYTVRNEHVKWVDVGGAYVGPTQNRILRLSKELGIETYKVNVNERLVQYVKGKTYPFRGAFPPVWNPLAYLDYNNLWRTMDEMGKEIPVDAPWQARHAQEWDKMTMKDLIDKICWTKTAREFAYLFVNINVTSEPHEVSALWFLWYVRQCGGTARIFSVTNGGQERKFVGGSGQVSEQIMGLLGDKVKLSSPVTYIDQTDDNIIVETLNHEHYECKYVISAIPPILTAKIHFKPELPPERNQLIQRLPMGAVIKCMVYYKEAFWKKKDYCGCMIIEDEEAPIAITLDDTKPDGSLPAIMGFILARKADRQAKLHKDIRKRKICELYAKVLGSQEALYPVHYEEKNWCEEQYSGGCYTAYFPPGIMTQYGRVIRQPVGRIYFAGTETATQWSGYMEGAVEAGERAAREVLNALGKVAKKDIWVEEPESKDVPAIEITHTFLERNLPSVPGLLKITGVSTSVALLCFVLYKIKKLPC

Tell me its IC50 on Amine oxidase [flavin-containing] A (Rattus norvegicus, UniProt P21396): "COc1ccc(/C=C2\CCc3ccc(F)cc3C2=O)c(Cl)c1OC"
17.2 µM

Tell me its IC50 on Amine oxidase [flavin-containing] A (Rattus norvegicus, UniProt P21396): "COc1cccc(/C=C2\CCc3c(OC)cccc3C2=O)c1Cl"
> 100 µM

Tell me its IC50 on Amine oxidase [flavin-containing] A (Rattus norvegicus, UniProt P21396): "COc1cccc(/C=C2\CCc3ccc([N+](=O)[O-])cc3C2=O)c1Cl"
7.23 µM

Tell me its IC50 on Amine oxidase [flavin-containing] A (Rattus norvegicus, UniProt P21396): "COc1cc(/C=C2\CCc3ccc(F)cc3C2=O)c(Br)c(OC)c1OC"
10.9 µM

Tell me its IC50 on Amine oxidase [flavin-containing] A (Rattus norvegicus, UniProt P21396): "COc1cc(/C=C2\CCc3ccc(Cl)cc3C2=O)c(Br)c(OC)c1OC"
> 100 µM

Tell me its IC50 on Amine oxidase [flavin-containing] A (Rattus norvegicus, UniProt P21396): "COc1ccc2c(c1)CC/C(=C\c1cccc(OC)c1Cl)C2=O"
> 100 µM

Next molecule, IC50 to be filled in.
Tell me its IC50 on Amine oxidase [flavin-containing] A (Rattus norvegicus, UniProt P21396): COc1cccc(/C=C2\CC(C)c3ccccc3C2=O)c1Cl (stereo unspecified)
10.2 µM

====

This section lists IC50 readings for Acetylcholinesterase (Electrophorus electricus, UniProt O42275).
Field format: number, assumed µM, no unit text.

Tell me its IC50 on Acetylcholinesterase (Electrophorus electricus, UniProt O42275): "COc1ccc(/C=C2\CCc3ccc([N+](=O)[O-])cc3C2=O)c(Cl)c1OC"
Sequence (O42275 whole entry): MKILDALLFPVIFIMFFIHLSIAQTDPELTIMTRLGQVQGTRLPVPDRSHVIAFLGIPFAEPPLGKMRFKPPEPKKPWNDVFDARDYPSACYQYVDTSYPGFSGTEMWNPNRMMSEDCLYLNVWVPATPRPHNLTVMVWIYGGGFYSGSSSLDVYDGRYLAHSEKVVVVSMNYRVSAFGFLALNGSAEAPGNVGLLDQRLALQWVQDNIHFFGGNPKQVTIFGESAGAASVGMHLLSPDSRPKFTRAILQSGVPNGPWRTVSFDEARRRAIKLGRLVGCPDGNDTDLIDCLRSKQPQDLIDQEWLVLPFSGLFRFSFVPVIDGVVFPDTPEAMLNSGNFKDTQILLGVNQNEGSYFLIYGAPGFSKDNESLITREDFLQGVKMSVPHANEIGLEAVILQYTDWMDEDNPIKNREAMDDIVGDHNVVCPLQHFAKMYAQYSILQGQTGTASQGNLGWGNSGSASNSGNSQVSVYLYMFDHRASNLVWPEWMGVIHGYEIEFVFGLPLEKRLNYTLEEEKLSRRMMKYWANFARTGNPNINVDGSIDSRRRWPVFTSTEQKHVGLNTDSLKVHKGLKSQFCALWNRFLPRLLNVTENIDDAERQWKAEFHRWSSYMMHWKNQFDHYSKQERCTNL
2.92

Tell me its IC50 on Acetylcholinesterase (Electrophorus electricus, UniProt O42275): "COc1cccc2c1CC/C(=C\c1ccc(OC)c(OC)c1Cl)C2=O"
81.2

Tell me its IC50 on Acetylcholinesterase (Electrophorus electricus, UniProt O42275): "COc1ccc2c(c1)CC/C(=C\c1cccc(OC)c1Cl)C2=O"
43.9

New cases:
Tell me its IC50 on Acetylcholinesterase (Electrophorus electricus, UniProt O42275): "COc1ccc2c(c1)CC/C(=C\c1cc(OC)c(OC)c(OC)c1Br)C2=O"
1.2

Tell me its IC50 on Acetylcholinesterase (Electrophorus electricus, UniProt O42275): "COc1cc(/C=C2\CCc3ccccc3C2=O)c(Br)c(OC)c1OC"
12.4

Tell me its IC50 on Acetylcholinesterase (Electrophorus electricus, UniProt O42275): COc1ccc(/C=C2\CC(C)c3ccccc3C2=O)c(Cl)c1OC (centres undefined)
0.12

====

This section lists IC50 readings for Amine oxidase [flavin-containing] A (Rattus norvegicus, UniProt P21396).
Field format: number, assumed µM, no unit text.

Return the recorded IC50 value; entry: COc1cc(/C=C2\CC(C)c3ccccc3C2=O)c(Br)c(OC)c1OC (stereo not given)
0.92

Return the recorded IC50 value; entry: "COc1ccc2c(c1)CC/C(=C\c1cc(OC)c(OC)c(OC)c1Br)C2=O"
32.2

Return the recorded IC50 value; entry: "COc1cc(/C=C2\CCc3ccc([N+](=O)[O-])cc3C2=O)c(Br)c(OC)c1OC"
0.99

Return the recorded IC50 value; entry: "COc1ccc2c(c1)CC/C(=C\c1ccc(OC)c(OC)c1Cl)C2=O"
47.2

Return the recorded IC50 value; entry: COc1ccc(/C=C2\CC(C)c3ccccc3C2=O)c(Cl)c1OC (stereo not given)
8.9

New cases:
Return the recorded IC50 value; entry: "COc1cc(/C=C2\CCc3ccccc3C2=O)c(Br)c(OC)c1OC"
27.3

Return the recorded IC50 value; entry: "COc1cccc(/C=C2\CCc3ccc(F)cc3C2=O)c1Cl"
19.6

Return the recorded IC50 value; entry: "COc1ccc(/C=C2\CCc3ccc([N+](=O)[O-])cc3C2=O)c(Cl)c1OC"
1.24

====

Target: Amine oxidase [flavin-containing] B (Rattus norvegicus, UniProt P19643)
Sequence (P19643 whole entry): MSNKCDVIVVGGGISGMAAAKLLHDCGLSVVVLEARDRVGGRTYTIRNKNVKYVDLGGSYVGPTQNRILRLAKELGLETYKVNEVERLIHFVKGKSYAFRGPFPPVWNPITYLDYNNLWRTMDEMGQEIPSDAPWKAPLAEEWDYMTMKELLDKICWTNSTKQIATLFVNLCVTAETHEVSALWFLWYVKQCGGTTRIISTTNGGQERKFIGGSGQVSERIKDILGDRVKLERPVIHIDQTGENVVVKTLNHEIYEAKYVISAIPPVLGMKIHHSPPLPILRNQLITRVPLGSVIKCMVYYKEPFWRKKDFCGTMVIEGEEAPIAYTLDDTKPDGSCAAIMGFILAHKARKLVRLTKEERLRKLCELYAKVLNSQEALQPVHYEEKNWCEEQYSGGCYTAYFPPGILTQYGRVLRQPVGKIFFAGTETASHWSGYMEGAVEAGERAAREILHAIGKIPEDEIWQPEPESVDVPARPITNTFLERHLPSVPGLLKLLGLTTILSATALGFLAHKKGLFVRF
PROPERTY MEASURED: IC50 (µM)
Field format: number, assumed µM, no unit text.

# example entries with known answers
Return the recorded IC50 value; entry: "COc1cccc(/C=C2\CCc3ccc([N+](=O)[O-])cc3C2=O)c1Cl"
6.8

Return the recorded IC50 value; entry: "COc1cc(/C=C2\CCc3ccc(Br)cc3C2=O)c(Br)c(OC)c1OC"
44.6

Return the recorded IC50 value; entry: "COc1cccc(/C=C2\CCc3c(OC)cccc3C2=O)c1Cl"
78.9

Return the recorded IC50 value; entry: "COc1cc(/C=C2\CCc3ccc([N+](=O)[O-])cc3C2=O)c(Br)c(OC)c1OC"
0.91

Return the recorded IC50 value; entry: "COc1cccc(/C=C2\CCc3ccc(F)cc3C2=O)c1Cl"
6.9

New cases:
Return the recorded IC50 value; entry: "COc1cccc2c1CC/C(=C\c1ccc(OC)c(OC)c1Cl)C2=O"
63.7

Return the recorded IC50 value; entry: "COc1cc2c(cc1OC)C(=O)/C(=C/c1cc(OC)c(OC)c(OC)c1Br)CC2"
2.9

Return the recorded IC50 value; entry: COc1ccc(/C=C2\CC(C)c3ccccc3C2=O)c(Cl)c1OC (configuration not stated)
1.9

Return the recorded IC50 value; entry: COc1cccc(/C=C2\CC(C)c3ccccc3C2=O)c1Cl (configuration not stated)
3.2

Return the recorded IC50 value; entry: "COc1cccc(/C=C2\CCc3ccc(Br)cc3C2=O)c1Cl"
67.9

Return the recorded IC50 value; entry: "COc1ccc(/C=C2\CCc3ccc(Br)cc3C2=O)c(Cl)c1OC"
56.4

Return the recorded IC50 value; entry: "COc1cc2c(cc1OC)C(=O)/C(=C/c1cccc(OC)c1Cl)CC2"
7.2

Return the recorded IC50 value; entry: "COc1ccc(/C=C2\CCc3ccc([N+](=O)[O-])cc3C2=O)c(Cl)c1OC"
2.9

Return the recorded IC50 value; entry: "COc1cc2c(cc1OC)C(=O)/C(=C/c1ccc(OC)c(OC)c1Cl)CC2"
5.4

Return the recorded IC50 value; entry: "COc1cccc2c1CC/C(=C\c1cc(OC)c(OC)c(OC)c1Br)C2=O"
56

Return the recorded IC50 value; entry: "COc1cc(/C=C2\CCc3ccccc3C2=O)c(Br)c(OC)c1OC"
5.6

Return the recorded IC50 value; entry: "COc1cc(/C=C2\CCc3ccc(F)cc3C2=O)c(Br)c(OC)c1OC"
1.2
